System: CaSki cells
Test: Cell cycle analysis using Propidium-Iodide staining (flow cytometry)
Type: cell-based, human
Settings: cell cycle distribution, 48 hour incubation, 5 μM, no treatment 15.6
Method: Propidium-Iodide (PI) DNA staining is performed to facilitate cell cycle analysis. […] CaSki cells were incubated with various compounds and cell cycle distribution of the cells was assessed using Propidium-Iodide staining. In order to analyze the cytostatic versus the cytotoxic effect of OC compounds, cell cycle profiles were analyzed in vitro after 48 hour incubations using Flow Cytometry as a read out. […]
A collection of compounds and their measured G2/5 μM
Field format: number, assumed %, no unit text.

Answered cases to consult:
- Compound: "Cc1ccc(CN2C(=O)c3ccccc3[C@@H](C(=O)Nc3cccc(N4CCN(C)CC4)c3)[C@@H]2c2ccc(C(F)(F)F)nc2)cc1 (relative stereo) [OC968]"
  G2/5 μM, %: 18.0
- Compound: "CN1CCN(c2cccc(NC(=O)[C@@H]3c4ccccc4C(=O)N(Cc4cccnc4)[C@H]3c3ccc(C(F)(F)F)cc3)c2)CC1 (relative stereo) [OC976]"
  G2/5 μM, %: 9.3

Given the compound CN1CCN(c2cccc(NC(=O)[C@@H]3c4ccccc4C(=O)N(Cc4ccncc4)[C@H]3c3ccc(C(F)(F)F)cc3)c2)CC1 (relative stereo) [OC975] , what is its reported G2/5 μM?
10.4

Given the compound Cc1ccc(CN2C(=O)c3ccccc3[C@@H](C(=O)Nc3ccc(N4CCN(C)CC4)cc3)[C@@H]2c2ccc(C(F)(F)F)cc2)cc1 (relative stereo) [OC972] , what is its reported G2/5 μM?
16.9

Given the compound CN1CCC(CN2C(=O)c3ccccc3[C@@H](C(=O)Nc3cccc(N4CCN(C)CC4)c3)[C@@H]2c2ccc(C(F)(F)F)cc2)CC1 (racemic) [OC974] , what is its reported G2/5 μM?
9.9

Given the compound Cc1ccc(CN2C(=O)c3ccccc3[C@H](C(=O)Nc3cccc(N4CCN(C)CC4)c3)[C@@H]2c2ccc(C(F)(F)F)cc2)cc1 [OC246] , what is its reported G2/5 μM?
15.7

Given the compound Cc1ccc(CN2C(=O)c3ccccc3[C@@H](C(=O)Nc3cccc(N4CCOCC4)c3)[C@@H]2c2ccc(C(F)(F)F)cc2)cc1 (relative stereo) [OC973] , what is its reported G2/5 μM?
17.6
